Data provenance is patent US4546176A.

Measure Name: MIC (µg/mL)
The response must be a number in µg/mL with no trailing unit.

Query: Please indicate recorded MIC of CC(=O)OCC1=C(C(=O)O)N2C(=O)[C@@H](NC(=O)[C@H](NC(=O)c3c(C)oc4cc(O)c(O)cc4c3=O)c3ccc(OCC(=O)O)cc3)[C@H]2SC1 measured with Proteus morganii EP-14.
Reply: 12.5

Query: Retrieve MIC on Proteus morganii EP-14; query CO[C@@]1(NC(=O)[C@H](NC(=O)c2coc3cc(O)c(O)cc3c2=O)c2ccc(OCC(=O)O)cc2)C(=O)N2C(C(=O)O)=C(CSc3nnnn3CC(=O)O)CS[C@@H]21
Reply: 6.25

Query: Please report the measured MIC for CO[C@@]1(NC(=O)[C@H](NC(=O)c2coc3cc(O)c(O)cc3c2=O)c2ccc(OCC(=O)O)cc2)C(=O)N2C(C(=O)O)=C(COC(C)=O)CS[C@@H]21 tested on Proteus morganii EP-14.
Reply: 6.25
